Molecular target: POLγA:G848S (Homo sapiens, UniProt P54098, G848S)
Sequence (P54098 whole entry G848S): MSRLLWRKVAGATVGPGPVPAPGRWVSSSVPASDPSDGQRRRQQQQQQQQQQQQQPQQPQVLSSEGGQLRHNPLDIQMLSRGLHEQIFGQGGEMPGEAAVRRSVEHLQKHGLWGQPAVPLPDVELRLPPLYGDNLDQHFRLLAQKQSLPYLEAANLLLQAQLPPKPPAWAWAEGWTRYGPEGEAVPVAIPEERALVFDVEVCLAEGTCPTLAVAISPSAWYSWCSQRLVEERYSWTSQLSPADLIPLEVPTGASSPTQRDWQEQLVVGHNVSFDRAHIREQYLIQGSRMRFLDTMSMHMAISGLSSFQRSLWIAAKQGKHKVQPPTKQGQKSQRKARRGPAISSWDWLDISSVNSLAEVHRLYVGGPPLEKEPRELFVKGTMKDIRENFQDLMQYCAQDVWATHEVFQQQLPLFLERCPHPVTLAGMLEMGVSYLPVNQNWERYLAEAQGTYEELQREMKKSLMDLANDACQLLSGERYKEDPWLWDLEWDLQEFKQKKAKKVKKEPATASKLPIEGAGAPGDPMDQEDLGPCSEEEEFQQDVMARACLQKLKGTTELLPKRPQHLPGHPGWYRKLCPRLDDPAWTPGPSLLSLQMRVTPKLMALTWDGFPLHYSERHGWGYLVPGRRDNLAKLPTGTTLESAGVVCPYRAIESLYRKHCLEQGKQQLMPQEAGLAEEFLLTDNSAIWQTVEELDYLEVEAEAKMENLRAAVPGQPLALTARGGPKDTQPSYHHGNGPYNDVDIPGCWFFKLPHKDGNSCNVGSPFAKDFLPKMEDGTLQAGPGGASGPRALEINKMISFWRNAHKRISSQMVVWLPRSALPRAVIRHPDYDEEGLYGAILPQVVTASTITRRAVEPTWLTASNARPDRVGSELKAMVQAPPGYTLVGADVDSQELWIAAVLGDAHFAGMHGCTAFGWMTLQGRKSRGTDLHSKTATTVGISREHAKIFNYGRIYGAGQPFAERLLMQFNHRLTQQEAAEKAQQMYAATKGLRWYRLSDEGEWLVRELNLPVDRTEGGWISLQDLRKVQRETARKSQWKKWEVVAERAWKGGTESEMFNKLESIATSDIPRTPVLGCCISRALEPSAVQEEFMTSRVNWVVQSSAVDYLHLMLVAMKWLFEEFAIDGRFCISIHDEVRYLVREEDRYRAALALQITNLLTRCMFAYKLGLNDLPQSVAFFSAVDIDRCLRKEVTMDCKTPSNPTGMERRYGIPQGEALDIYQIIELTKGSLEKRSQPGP
Sequence (Q9UHN1 whole entry partner): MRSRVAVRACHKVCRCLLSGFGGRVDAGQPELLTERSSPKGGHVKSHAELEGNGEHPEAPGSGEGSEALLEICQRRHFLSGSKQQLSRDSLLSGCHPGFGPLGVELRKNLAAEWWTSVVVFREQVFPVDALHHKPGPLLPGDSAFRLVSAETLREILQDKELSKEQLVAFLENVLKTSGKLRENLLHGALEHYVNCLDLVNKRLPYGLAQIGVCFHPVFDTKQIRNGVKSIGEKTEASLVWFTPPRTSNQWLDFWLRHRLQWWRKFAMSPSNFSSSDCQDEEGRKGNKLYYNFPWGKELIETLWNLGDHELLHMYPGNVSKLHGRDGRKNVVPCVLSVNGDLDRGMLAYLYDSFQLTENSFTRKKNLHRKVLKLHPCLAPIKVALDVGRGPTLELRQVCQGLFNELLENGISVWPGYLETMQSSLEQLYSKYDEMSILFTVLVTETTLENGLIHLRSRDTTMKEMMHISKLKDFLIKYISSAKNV
Experiment: DNA polymerization assay, POLγA:G848S mutant
Assay type: biochemical
Details: stimulation of polymerase activity, primed M13mp18 ssDNA, 37° C. 2 hours; read-out: G848S AC50
Measured endpoint: AC50

(Q) Returns the measured AC50 for the input compound. Input: Cc1cc(S(=O)(=O)Nc2ccc(-c3ncc(CN(C)C)s3)cc2)c(C)cc1Cl
(A) > 100 µM

(Q) Returns the measured AC50 for the input compound. Input: Cc1cc(S(=O)(=O)Nc2cccc(C(=O)N[C@@H](C)c3ccccc3)c2)c(C)cc1Cl
(A) > 100 µM

(Q) Returns the measured AC50 for the input compound. Input: O=S(=O)(Nc1csc(-c2ccccc2)n1)c1cccnc1
(A) > 100 µM

(Q) Returns the measured AC50 for the input compound. Input: Cc1cc(S(=O)(=O)Nc2cccc(C(=O)N3C[C@@H](F)C[C@H](F)C3)c2)c(C)cc1Cl
(A) > 100 µM

(Q) Returns the measured AC50 for the input compound. Input: Cc1cnc(-c2cc(NS(=O)(=O)c3cc(C)c(Cl)cc3C)ccc2C)s1
(A) 9 µM

(Q) Returns the measured AC50 for the input compound. Input: Cc1cc(S(=O)(=O)N[C@H]2CCCN(c3ccccc3)C2)c(C)cc1Cl
(A) 31 µM

(Q) Returns the measured AC50 for the input compound. Input: Cc1cc(S(=O)(=O)Nc2cccc(-c3ncco3)c2)c(C)cc1Cl
(A) 6 µM

(Q) Returns the measured AC50 for the input compound. Input: Cc1cc(S(=O)(=O)Nc2nc(-c3ccccc3)ns2)c(C)cc1Cl
(A) > 100 µM

(Q) Returns the measured AC50 for the input compound. Input: COc1ccc(S(=O)(=O)Nc2cccc(C(=O)N3CCSCC3C#N)c2)cc1 (centres unmarked)
(A) 37 µM

(Q) Returns the measured AC50 for the input compound. Input: Cc1cc(S(=O)(=O)Nc2ccc3c(c2)CC(=O)N3)c(C)cc1Cl
(A) 15 µM

(Q) Returns the measured AC50 for the input compound. Input: Cc1cc(S(=O)(=O)Nc2cc(-c3nccs3)ccc2F)c(C)cc1Cl
(A) > 100 µM

(Q) Returns the measured AC50 for the input compound. Input: O=S(=O)(Nc1csc(-c2ccccc2)n1)c1ccc(C(F)(F)F)cc1F
(A) > 100 µM

(Q) Returns the measured AC50 for the input compound. Input: Cc1ccc(C)c(S(=O)(=O)Nc2cccc(C(=O)N3CCSCC3)c2)c1
(A) > 100 µM

(Q) Returns the measured AC50 for the input compound. Input: Cc1cc(S(=O)(=O)N[C@H]2CCCN(C(=O)[C@@H]3CCCN3C)C2)c(C)cc1Cl
(A) > 100 µM

(Q) Returns the measured AC50 for the input compound. Input: Cc1cc(S(=O)(=O)Nc2cccc(C(=O)N3CCCN(C(=O)C(C)C)CC3)c2)c(C)cc1Cl
(A) > 100 µM

(Q) Returns the measured AC50 for the input compound. Input: N#CC1CSCCN1C(=O)c1cccc(NS(=O)(=O)c2cccc(C(F)(F)F)c2)c1 (centres unmarked)
(A) > 100 µM

(Q) Returns the measured AC50 for the input compound. Input: Cc1ccc(C)c(S(=O)(=O)Nc2cccc(C(=O)N(C)Cc3ccccc3)c2)c1
(A) 50 µM

* * *

Biological target: POLγA:G848S (Homo sapiens, UniProt P54098, G848S)
Test: DNA polymerization assay, POLγA:G848S mutant
Assay type: biochemical
Conditions: stimulation of polymerase activity, primed M13mp18 ssDNA, 37° C. 2 hours; read-out: G848S AC50
Please provide measured AC50 for the entries that follow.
Lab book: enter the figure in µM, no units written.

(Q) Returns the measured AC50 for the input compound. Input: Cc1cc(S(=O)(=O)Nc2csc(C3CCOCC3)n2)c(C)cc1Cl [Example 167]
(A) 2

(Q) Returns the measured AC50 for the input compound. Input: Cc1cc(S(=O)(=O)Nc2csc(-c3ccccn3)n2)c(C)cc1Cl [Example 173]
(A) 2

(Q) Returns the measured AC50 for the input compound. Input: Cc1cc(S(=O)(=O)Nc2csc(-c3cnn(C)c3)n2)c(C)cc1Cl [Example 183]
(A) 0.5

(Q) Returns the measured AC50 for the input compound. Input: Cc1cc2cc(NS(=O)(=O)c3cc(C)c(Cl)cc3C)ccc2[nH]1 [Example 184]
(A) 24

(Q) Returns the measured AC50 for the input compound. Input: Cc1cnc(-c2ccc(C)c(NS(=O)(=O)c3cc(C)c(Cl)cc3C)c2)s1 [Example 98]
(A) 9

(Q) Returns the measured AC50 for the input compound. Input: Cc1cc(S(=O)(=O)Nc2cccc(C(=O)N3CCC(F)(F)C3)c2)c(C)cc1Cl [Example 160]
(A) 14

(Q) Returns the measured AC50 for the input compound. Input: Cc1ccc(C)c(S(=O)(=O)Nc2cccc(C(=O)N[C@@H](C)C3CC3)c2)c1 [Example 8]
(A) 23

(Q) Returns the measured AC50 for the input compound. Input: Cc1cnc(-c2cccc(NS(=O)(=O)c3cc(C)c(Cl)cc3C)c2)s1 [Example 21]
(A) 2

(Q) Returns the measured AC50 for the input compound. Input: Cc1cc(S(=O)(=O)Nc2cccc(-c3ncc(C4CC4)s3)c2)c(C)cc1Cl [Example 76]
(A) 3

(Q) Returns the measured AC50 for the input compound. Input: Cc1ccc(C)c(S(=O)(=O)Nc2cccc(C(=O)NCC3CC3)c2)c1 [Example 4]
(A) 33

(Q) Returns the measured AC50 for the input compound. Input: CC(=O)N1CCC(c2nc(NS(=O)(=O)c3cc(C)c(Cl)cc3C)cs2)CC1 [Example 163]
(A) 37

(Q) Returns the measured AC50 for the input compound. Input: O=S(=O)(Nc1csc(-c2ccccc2)n1)c1ccc2ncsc2c1 [Example 137]
(A) 11

(Q) Returns the measured AC50 for the input compound. Input: Cc1cc(S(=O)(=O)Nc2nsc(-c3ccccc3)n2)c(C)cc1Cl [Example 131]
(A) 3
